The variants listed here are annotated with their self-cleavage.
B1: HDV Ribozyme (parent)
chain: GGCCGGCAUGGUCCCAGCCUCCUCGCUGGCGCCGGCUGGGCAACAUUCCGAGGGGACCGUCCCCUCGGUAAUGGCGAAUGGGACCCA

- Variants of: B1
- protocolText: self-cleavage, relative activity (ratio to wild type); higher = more cleavage; co-transcriptional
Give the figure only, with no unit attached.

>>> print(df.to_string())
   variantspec  observedproperty  experimentalresult
0    G17A C58G     self-cleavage               0.812
1    C44A U65C     self-cleavage               0.804

Okay, next one:
# query: self-cleavage of entry G10A A56C
0.78
